Reference source for all entries: patent US11236129B2

Answer each item with its documented solubility.
Format: physicochemical
Details: pH 7.8
Residues, ends and D or L forms follow the SMILES beside them.

Measured solubility of CC[C@H](C)[C@H](NC(C)=O)C(=O)N[C@@H](Cc1c[nH]cn1)C(=O)N[C@H](C(=O)N[C@H](C(=O)N[C@H](C(=O)N1CCC[C@H]1C(=O)N[C@@H](C)C(=O)N[C@@H](CC(=O)O)C(=O)N[C@@H](CC(C)C)C(=O)N[C@@H](Cc1c[nH]c2ccccc12)C(=O)N[C@@H](CC(=O)O)C(=O)N[C@@H](Cc1c[nH]c2ccccc12)C(=O)N[C@H](C(=O)N[C@@H](CCC(=O)O)C(=O)N[C@@H](CCC(=O)O)C(N)=O)C(C)C)[C@@H](C)CC)[C@@H](C)O)C(C)C [SEQ ID NO: 15] (Ac-IHVTIPADLWDWVEE-NH2) : ≥ 0.05 mM

According to the records, this compound CC[C@H](C)[C@H](NC(=O)[C@@H](NC(=O)[C@@H](NC(=O)[C@H](Cc1c[nH]cn1)NC(=O)[C@@H](NC(C)=O)C(C)C)C(C)C)[C@@H](C)O)C(=O)N1CCC[C@H]1C(=O)N[C@@H](CCC(N)=O)C(=O)N[C@@H](CC(=O)O)C(=O)N[C@@H](CC(C)C)C(=O)N[C@@H](Cc1c[nH]c2ccccc12)C(=O)N[C@@H](CCC(=O)O)C(=O)N[C@@H](Cc1c[nH]c2ccccc12)C(=O)N[C@H](C(=O)N[C@@H](CCCNC(=N)N)C(=O)N[C@@H](CCCNC(=N)N)C(N)=O)C(C)C [SEQ ID NO: 115] (Ac-VHVTIPQDLWEWVRR-NH2) displays solubility of < 0.05 mM

Short answer for CC[C@H](C)[C@H](NC(C)=O)C(=O)N[C@@H](Cc1c[nH]cn1)C(=O)N[C@H](C(=O)N[C@H](C(=O)N[C@H](C(=O)N1CCC[C@H]1C(=O)N[C@@H](C)C(=O)N[C@@H](CC(=O)O)C(=O)N[C@@H](CC(C)C)C(=O)N[C@@H](Cc1ccc(O)cc1)C(=O)N[C@@H](CC(=O)O)C(=O)N[C@@H](Cc1c[nH]c2ccccc12)C(=O)N[C@H](C(=O)N[C@@H](CC(N)=O)C(=O)N[C@@H](CCCCN)C(N)=O)[C@@H](C)CC)[C@@H](C)CC)[C@@H](C)O)C(C)C [SEQ ID NO: 6] (Ac-IHVTIPADLYDWINK-NH2) : solubility was > 10 mM

API: the following record is the query input.
Lab note: measured solubility of CC[C@H](C)[C@H](NC(C)=O)C(=O)N[C@@H](Cc1c[nH]cn1)C(=O)N[C@H](C(=O)N[C@H](C(=O)N[C@H](C(=O)N1CCC[C@H]1C(=O)N[C@@H](C)C(=O)N[C@@H](CC(=O)O)C(=O)N[C@@H](CC(C)C)C(=O)N[C@@H](Cc1ccc(O)cc1)C(=O)N[C@@H](CCC(=O)O)C(=O)N[C@@H](Cc1c[nH]c2ccccc12)C(=O)N[C@H](C(=O)N[C@@H](CC(N)=O)C(=O)N[C@@H](CCCCN)C(N)=O)[C@@H](C)CC)[C@@H](C)CC)[C@@H](C)O)C(C)C [SEQ ID NO: 7] (Ac-IHVTIPADLYEWINK-NH2) was > 10 mM
